B1: Kinesin-like protein KIF16B, residues 1213 to 1273; numbered along this chain, Q96L93 (parent)
chain: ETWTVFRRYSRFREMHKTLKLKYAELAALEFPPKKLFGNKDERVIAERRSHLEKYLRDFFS

Variants of: B1
Assay: abundance fitness (aPCA) (normalised: wild type 0, dead -1); higher = more abundant; growth selection in yeast, the domain comes from the species named
Conditions: Homo sapiens
Everything with abundance fitness lower than 0.09 is not satisfied; everything else, including exactly 0.09, is satisfied.

> print(dat)
    variantdescriptor     labelclass
 1               Y23L      satisfied
 2               E53F      satisfied
 3               L26A  not satisfied
 4                Y9Q  not satisfied
 5               Y23R  not satisfied
 6                T4G  not satisfied
 7               R49K      satisfied
 8               E42I  not satisfied
 9               I45N  not satisfied
10               H51Y  not satisfied
11               E53I      satisfied
